Biological target: T1, recombinant human PD-1-his protein (human, UniProt Q15116 25-167)
T1 construct: also called hPD-1-his; not shown: his tag
T1 sequence (Q15116 25-167 limits assumed): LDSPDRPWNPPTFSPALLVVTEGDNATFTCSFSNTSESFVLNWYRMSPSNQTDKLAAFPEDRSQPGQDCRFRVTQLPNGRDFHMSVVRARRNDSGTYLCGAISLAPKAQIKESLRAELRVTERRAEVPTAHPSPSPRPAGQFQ
Experiment: ELISA; PD-1-his coated 2 µg/mL, anti-human IgG Fc-HRP
Description: The plates were washed three times with PBST. 5% PBS-Milk and incubated at room temperature for 2 h. The plates were washed three times with PBST. All the nanobody-Fc fusion proteins were subject to 3-folded gradient dilution with an initial concentration of 10 μg/mL, added into each well at 30 μL/well, and incubated at room temperature for 1 hr. The plates were washed three times with PBST. […] The OD450 absorbance value was read by a microplate reader. […]
measured_endpoint: EC50

## Task For the binder MHPD1-A-23 H Fc (Fc fusion, not shown: Fc region) VHH: QVQLVESGGGLVQPGGSLRLSCATSGTRRSIYAMGWFRQAPGKGLEFVAGIGWAYATTYYADSVKGRFTISRDNTKNTLYLQMNSLRAEDTAVYYCAADLDHSGFDYWGQGTLVTVSS , what EC50 is on record?
## Result 0.152 nM

## Task For MHPD1-A-19 H Fc (Fc fusion, not shown: a dimerising Fc or GST; small tags and cut ends) VHH: QVQLVESGGGLVQPGGSLRLSCATSGSEVSIYAMGWFRQAPGKGLEFVAGIGWAYATTYYADSVKGRFTISRDNTKNTLYLQMNSLRAEDTAVYYCAADLDRRGFDYWGQGTLVTVSS then?
## Result 0.27 nM

## Task Now give it for MHPD1-A-37 H Fc (Fc fusion, not shown: a dimerising Fc or GST; small tags and cut ends) VHH: QVQLVESGGGLVQPGGSLRLSCATSGARRSIYAMGWFRQAPGKGLEFVAGIGWAYATTYYADSVKGRFTISRDNTKNTLYLQMNSLRAEDTAVYYCAADLDRTGFDYWGQGTLVTVSS too.
## Result 0.141 nM

## Task Another: MHPD1-A-39 H Fc (Fc fusion, not shown: Fc) QVQLVESGGGLVQPGGSLRLSCATSGSRRSIYAMGWFRQAPGKGLEFVAGIGWAYATEYYADSVKGRFTISRDNTKNTLYLQMNSLRAEDTAVYYCAADLDHSGFDYWGQGTLVTVSS
## Result 0.158 nM

## Task Try this binder next: MHPD1-A-20 H Fc (Fc fusion, not shown: a dimerising Fc or GST; small tags and cut ends) VHH: QVQLVESGGGLVQPGGSLRLSCATSGSRKSIYAMGWFRQAPGKGLEFVAGIGWAYATTYYADSVKGRFTISRDNTKNTLYLQMNSLRAEDTAVYYCAADLDHSGFDYWGQGTLVTVSS
## Result 0.175 nM

## Task Please give the result for MHPD1-A-46 H Fc (Fc fusion, not shown: a dimerising Fc or GST; small tags and cut ends) VHH: QVQLVESGGGLVQPGGSLRLSCATSGSKGSIYAMGWFRQAPGKGLEFVAGIGWAYATTYYADSVKGRFTISRDNTKNTLYLQMNSLRAEDTAVYYCAADLDRSGFDYWGQGTLVTVSS too.
## Result 0.252 nM

## Task What do we get for MHPD1-A-31 H Fc (Fc fusion, not shown: Fc region) VHH: QVQLVESGGGLVQPGGSLRLSCATSGSRRSIYAMGWFRQAPGKGLEFVAGLGWAYATTYYADSVKGRFTISRDNTKNTLYLQMNSLRAEDTAVYYCAADLDHHGFDYWGQGTLVTVSS ?
## Result 0.219 nM

## Task Please do the same for MHPD1-A-17 H Fc (Fc fusion, not shown: a dimerising Fc or GST; small tags and cut ends) VHH: QVQLVESGGGLVQPGGSLRLSCATSGSISSIYAMGWFRQAPGKGLEFVAGIGWAYATTYYADSVKGRFTISRDNTKNTLYLQMNSLRAEDTAVYYCAADLDHSGFDYWGQGTLVTVSS as well.
## Result 0.196 nM
